biological target: HLA-B*51:01; assay: IEDB peptide-MHC binding, purified MHC/direct/fluorescence; filed as Kd, often an IC50 or EC50 that approximates it; bounds were set here for any values at or beyond the usual limits of such assays; details: source organism: Rickettsia sibirica 246
assay-metric: Kd

IN: Give Kd for "EFVSANLAM"
OUT: ≥ 20 µM

* * *

biological target: HLA-B*15:01; experiment: IEDB peptide-MHC binding, purified MHC/competitive/fluorescence; bounds were set here for any values at or beyond the usual limits of such assays; conditions: source organism: Vaccinia virus
assay-metric: IC50 (µM)
Could you give me the number in µM? Just the number is fine.

IN: Give IC50 for "ILRSLETDL"
OUT: 58.9

* * *

biological target: HLA-A*11:01; assay: IEDB peptide-MHC binding, purified MHC/direct/fluorescence; filed as Kd, often an IC50 or EC50 that approximates it; bounds were set here for any values at or beyond the usual limits of such assays; details: source organism: Mammarenavirus lassaense
assay-metric: Kd

IN: Give Kd for "RTRDIYISR"
OUT: ≥ 20 µM

* * *

biological target: HLA-A*01:01; experiment: IEDB peptide-MHC binding, purified MHC/competitive/fluorescence; bounds were set here for any values at or beyond the usual limits of such assays; settings: source organism: Pan troglodytes
assay-metric: IC50

IN: Find IC50 for "RPPYSSYGY" on HLA-A*01:01 and write it down.
OUT: ≥ 20 µM

* * *

molecular target: HLA-B*39:01; experiment: IEDB peptide-MHC binding, purified MHC/direct/fluorescence; filed as Kd, often an IC50 or EC50 that approximates it; bounds were set here for any values at or beyond the usual limits of such assays; details: source organism: Rickettsia sibirica 246
pKd: −log10 of the molar value.
assay-metric: pKd

IN: Find pKd for "EFVSANLAM" on HLA-B*39:01 and write it down.
OUT: ≤ 4.70

* * *

biological target: HLA-B*40:01; test: IEDB peptide-MHC binding, purified MHC/competitive/radioactivity; filed as Kd, often an IC50 or EC50 that approximates it; bounds were set here for any values at or beyond the usual limits of such assays; settings: source organism: Lymphocytic choriomeningitis virus (strain Armstrong)
assay-metric: pKd
A value of pKd is the negative decimal logarithm of a concentration given in moles per litre.

IN: Give pKd for "TEAILQLGDL"
OUT: 5.53

* * *

Parameter Kd: see the listing below.
molecular target: HLA-B*57:01; experiment: IEDB peptide-MHC binding, purified MHC/competitive/radioactivity; filed as Kd, often an IC50 or EC50 that approximates it; bounds were set here for any values at or beyond the usual limits of such assays; settings: source organism: Dengue virus 3 Martinique/1243/1999
Could you give me the number in nM? Just the number is fine.

In [3]: df
Out[3]:
   biopolymer_sequence  measurement_units  value_observed
0           ASSMINGVVK                 nM           15700

IN: Give Kd for "IGIGVLLTW"
OUT: 192

IN: Give Kd for "GGWRLSAQW"
OUT: 179

IN: Give Kd for "QASTTEAILP"
OUT: 1960

* * *

biological target: HLA-B*40:02; assay: IEDB peptide-MHC binding, purified MHC/competitive/fluorescence; bounds were set here for any values at or beyond the usual limits of such assays; conditions: source organism: Pan troglodytes
pIC50: −log10 of the molar value.
assay-metric: pIC50

IN: Give pIC50 for "RPPYSSYGY"
OUT: ≤ 4.70

* * *

Parameter Kd: see the listing below.
target: HLA-A*03:01; test: IEDB peptide-MHC binding, purified MHC/direct/fluorescence; filed as Kd, often an IC50 or EC50 that approximates it; bounds were set here for any values at or beyond the usual limits of such assays; details: source organism: Haemophilus influenzae

In [3]: df
Out[3]:
   biopolymer_sequence  assay_metric  value_observed
0            YATVAGHEG            Kd         ≥ 20 µM

IN: Find Kd for "EIKFNDITF" on HLA-A*03:01 and write it down.
OUT: ≥ 20 µM

* * *

target: HLA-A*24:03; assay: IEDB peptide-MHC binding, purified MHC/direct/fluorescence; filed as Kd, often an IC50 or EC50 that approximates it; bounds were set here for any values at or beyond the usual limits of such assays; conditions: source organism: Limestone Canyon virus
assay-metric: Kd

IN: Give Kd for "YKSRCYVGL"
OUT: ≥ 20 µM

* * *

molecular target: HLA-A*26:01; experiment: IEDB peptide-MHC binding, purified MHC/direct/fluorescence; filed as Kd, often an IC50 or EC50 that approximates it; bounds were set here for any values at or beyond the usual limits of such assays; conditions: source organism: Haemophilus influenzae
assay-metric: Kd

>>> df
   biopolymer_sequence  study_target  assay_metric  value_observed
0            YATVAGHEG   HLA-A*26:01            Kd      ≥ 20000 nM

IN: Give Kd for "EIKFNDITF"
OUT: 568 nM

* * *

molecular target: HLA-A*68:01; test: IEDB peptide-MHC binding, purified MHC/competitive/radioactivity; filed as Kd, often an IC50 or EC50 that approximates it; bounds were set here for any values at or beyond the usual limits of such assays; details: source organism: Lymphocytic choriomeningitis virus (strain Armstrong)
assay-metric: Kd (nM)
Could you give me the number in nM? Just the number is fine.

IN: Give Kd for "STLLTWHMH"
OUT: 2720

* * *

molecular target: HLA-B*57:01; test: IEDB peptide-MHC binding, purified MHC/competitive/radioactivity; filed as Kd, often an IC50 or EC50 that approximates it; bounds were set here for any values at or beyond the usual limits of such assays; conditions: source organism: Dengue virus 4 Philippines/H241/1956
Parameter pKd: see the listing below.
A value of pKd is the negative decimal logarithm of a concentration given in moles per litre.

   biopolymer_sequence  value_observed
0           GTSETFSMGL            4.87

Alright, here's another sequence for you.
IN: Give pKd for "IASLVMLLVH"
OUT: 6.36

* * *

biological target: HLA-B*18:01; test: IEDB peptide-MHC binding, purified MHC/competitive/fluorescence; filed as Kd, often an IC50 or EC50 that approximates it; bounds were set here for any values at or beyond the usual limits of such assays; settings: source organism: Human immunodeficiency virus 1
assay-metric: Kd (nM)
Could you give me the number in nM? Just the number is fine.

IN: Give Kd for "KSLYNTIATLY"
OUT: 346

* * *

target: HLA-B*15:01; experiment: IEDB peptide-MHC binding, purified MHC/competitive/fluorescence; filed as Kd, often an IC50 or EC50 that approximates it; bounds were set here for any values at or beyond the usual limits of such assays; conditions: source organism: Vaccinia virus Tian Tan
pKd: −log10 of the molar value.
assay-metric: pKd

IN: Give pKd for "YYKDDISYF"
OUT: ≤ 4.70

* * *

biological target: HLA-A*11:01; test: IEDB peptide-MHC binding, purified MHC/direct/fluorescence; filed as Kd, often an IC50 or EC50 that approximates it; bounds were set here for any values at or beyond the usual limits of such assays; settings: source organism: Mycobacterium tuberculosis
pKd: −log10 of the molar value.
assay-metric: pKd

Some solved entries appear below for comparison.
In [3]: df
Out[3]:
   biopolymer_sequence  study_target  value_observed
0            AVFEIFFRK   HLA-A*11:01            7.90
1            RPRLHSISF   HLA-A*11:01          ≤ 4.70

Alright, here's another sequence for you.
IN: Give pKd for "RPAGARAAF"
OUT: ≤ 4.70

* * *

biological target: HLA-A*02:01; experiment: IEDB peptide-MHC binding, purified MHC/competitive/fluorescence; filed as Kd, often an IC50 or EC50 that approximates it; bounds were set here for any values at or beyond the usual limits of such assays; settings: source organism: Coxiella burnetii RSA 493
assay-metric: Kd

IN: Give Kd for "EIYRTLYGL"
OUT: ≥ 20 µM

* * *

target: HLA-B*46:01; experiment: IEDB peptide-MHC binding, purified MHC/direct/fluorescence; filed as Kd, often an IC50 or EC50 that approximates it; bounds were set here for any values at or beyond the usual limits of such assays; settings: source organism: Cowpox virus
assay-metric: Kd

IN: Give Kd for "RHDITGFIL"
OUT: ≥ 20 µM

* * *

target: HLA-B*39:01; experiment: IEDB peptide-MHC binding, purified MHC/competitive/fluorescence; filed as Kd, often an IC50 or EC50 that approximates it; bounds were set here for any values at or beyond the usual limits of such assays; settings: source organism: Entamoeba histolytica HM-1:IMSS
assay-metric: Kd

IN: Give Kd for "IEAKINVAD"
OUT: ≥ 20 µM

* * *

biological target: HLA-B*27:05; assay: IEDB peptide-MHC binding, purified MHC/direct/fluorescence; filed as Kd, often an IC50 or EC50 that approximates it; bounds were set here for any values at or beyond the usual limits of such assays; conditions: source organism: Mammarenavirus juninense
assay-metric: Kd

IN: Give Kd for "QVKRREGMF"
OUT: ≥ 20 µM
